Experimental target: WDR5 (Homo sapiens (Human), UniProt P61964)
Assay details: TR-FRET binding assay, displacement of 10mer-Thr-FAM probe from His-tagged WDR5
Assay conditions: Inhibition of WDR5 by TR-FRET assay
Overview of reported log10 Ki across a group of compounds:
# values: log10(Ki), units nM

>>> print(df.to_string())
                                   compound   measure  experimental_result
0  Cc1ncc(CNC(=O)c2cc(CNC3=NCCN3)cc(-c3ccc(F)nc3C)n2)cn1  log10 Ki                 1.34

query: Supply log10 Ki value. Item: CCn1cc(-c2cc(CNC(=N)C3(C)CC3)cc(C(=O)N[C@H](c3ccc(F)c(C)c3)C3CC3)c2)c(C(F)(F)F)n1
result: -0.89

query: Supply log10 Ki value. Item: COc1cc(OC)cc(C(C)NC(=O)c2cc(CNC3=NCCN3)cc(-c3ccc(F)cc3C)c2)c1 (racemic)
result: -0.34

query: Supply log10 Ki value. Item: COc1cc(CN(C)C(=O)c2cc(Cn3ccnc3)cc(-c3ccc(F)nc3C)c2)cc(OC)c1
result: 1.98

query: Supply log10 Ki value. Item: COc1cc(CNC(=O)c2cc(CNC3=NCCC3)cc(-c3ccc(F)cc3C)c2N)cc(OC)c1
result: 0.72

query: Supply log10 Ki value. Item: Cc1cnc(F)c(-c2cc(CNC3=NCCN3)cc(C(=O)NCc3cc(Cl)ccn3)c2)c1
result: -0.59

query: Supply log10 Ki value. Item: COc1ccnc(CNC(=O)c2cc(CNC3=NCCN3)cc(-c3cc(C(F)(F)F)cnc3OC)c2)c1
result: -1.00

====

Overview of reported log10 Ki across a group of compounds:
Experimental target: WDR5 (Homo sapiens (Human))
Assay details: TR-FRET binding assay, displacement of 10mer-Thr-FAM probe from His-tagged WDR5
Assay conditions: Inhibition of WDR5 by TR-FRET assay
# values: log10(Ki), units nM

Field: example entries. Status: answers known.
                                   compound   measure  experimental_result
0  COc1cc(OC)cc(C(C)NC(=O)c2cc(Cn3ccnc3C)cc(-c3ccc(F)cc3OC)n2)c1 (stereo not shown) [Example 158]  log10 Ki                 0.90
1  Cc1cc(-c2cc(CNC3=NCCN3)cc(C(=O)NCc3cc(F)cc(Cl)c3)c2)ccn1 [Example 16]  log10 Ki                -0.28
2  Cc1ncc(CNC(=O)c2cc(CNC3=NCCN3)cc(-c3ccc(F)nc3C)c2)cn1 [Example 37]  log10 Ki                 0.32
3  COc1cc(CNC(=O)c2cc(CNC3=NCCC3)cc(-c3cccn3C)c2)cc(OC)c1 [Example 58]  log10 Ki                 0.76
4  Cc1cc(CNC(=O)c2cc(CNC3=NCCC3)cc(-c3ccc(F)c(CO)c3)c2)ccc1Cl [Example 65]  log10 Ki                 0.63

query: Supply log10 Ki value. Item: COc1ccc(CNC(=O)c2cc(CNC3=NCCN3)cc(-c3ccnc(C)c3)c2)cc1OC [Example 15]
result: 0.23

query: Supply log10 Ki value. Item: Cc1cc(CNC(=O)c2cc(CNC3=NCCC3)cc(-c3ccc(F)cc3C(F)(F)F)c2)ccc1Cl [Example 68]
result: -0.52

query: Supply log10 Ki value. Item: Cc1ccnc(C(NC(=O)c2cc(CNC3=NCCC3)cc(-c3ccc(F)cc3C)n2)C2CC2)c1 (stereo not shown) [Example 95]
result: 0.93

query: Supply log10 Ki value. Item: COc1ccc(CNC(=O)c2cc(CNC3=NCCN3)cc(-c3ccc(F)nc3C)c2)cc1OC [Example 4]
result: -0.44

====

Experimental target: WDR5 (Homo sapiens (Human), UniProt P61964)
Assay details: TR-FRET binding assay, displacement of 10mer-Thr-FAM probe from His-tagged WDR5
Overview of reported Ki across a group of compounds:
// units = nM; emit number, no label

Field: example entries. Status: answers known.
                                   compound  experimental_result
0  Cc1cc(-c2cc(CNC3=NCCN3)cc(C(=O)NCc3ccc(Cl)c(Cl)c3)c2)cnc1F [Example B99]               0.0875
1  Cc1nc(F)ccc1-c1cc(CNC2=NCCN2)cc(C(=O)NCc2ccc(Cl)c(Cl)c2)c1 [Example B64]               0.0213

query: Supply Ki value. Item: COc1ccnc(CNC(=O)c2cc(CNC3=NCCN3)cc(-c3cc(OC)ccc3OC)c2)c1 [Example B115]
result: 0.48

query: Supply Ki value. Item: Cc1cc(-c2cc(CNC3=NCCN3)cc(C(=O)NCc3ccc(Cl)c(Cl)c3)c2)ccn1 [Example B74]
result: 0.0312

====

Experimental target: WDR5 (Homo sapiens (Human))
Assay details: TR-FRET binding assay, displacement of 10mer-Thr-FAM probe from His-tagged WDR5
Overview of reported Ki across a group of molecules:
// units = nM; emit number, no label

Field: example entries. Status: answers known.
>>> print(df.to_string())
                                   molecule          experimental_target  measure  experimental_result
0  Cc1cc(C)cc(CNC(=O)c2cc(CNC3=NCCN3)cc(-c3ccnc(C)c3)c2)c1 [Example B90]  WDR5 (Homo sapiens (Human))       Ki                0.115
1  COc1ccnc(CNC(=O)c2cc(CNC3=NCCN3)cc(-c3cc(Cl)ccc3OC)c2)c1 [Example B116]  WDR5 (Homo sapiens (Human))       Ki                0.106
2  COc1ccc(CNC(=O)c2cc(CNC3=NCCN3)cc(-c3cc(C)cnc3F)c2)cc1OC [Example B107]  WDR5 (Homo sapiens (Human))       Ki               0.0965
3  Cc1cc(CNC(=O)c2cc(CNC3=NCCC3)cc(-c3ccc(F)nc3C)c2)ccc1Cl [Example B129]  WDR5 (Homo sapiens (Human))       Ki                0.089

Let us move to another entry and its Ki.
query: Supply Ki value. Item: Cc1cc(CNC(=O)c2cc(CNC3=NCCN3)cc(-c3cnccc3C)c2)ccc1Cl [Example B88]
result: 0.115

====

Experimental target: WDR5 (Homo sapiens (Human), UniProt P61964)
Assay details: Fluorescence polarization anisotropy (FPA) competition assay, displacement of FITC-MLL or 10mer-Thr-FAM peptide
Assay type: binding
Assay conditions: Table B2, WDR5 WIN-site binding affinity; values not less than 1 nM (FPA)
Overview of reported pKi across a group of molecules:
Scale explanation: pKi corresponds to minus log10 of a concentration expressed in moles per litre.

                                   molecule  experimental_result
0  CCOc1ccc(C(=O)NC(c2cc(C)ccn2)C2CC2)cc1CNC1=NCCN1 (centres unmarked)                 7.91

query: Supply pKi value. Item: Cc1cc(CNC(=O)c2cccc(CNC3=NCCN3)c2)ccc1Cl
result: 7.92

query: Supply pKi value. Item: COc1cc(CNC(=O)c2cc(CNC3=NCCN3)ccc2F)cc(OC)c1
result: 8.06

query: Supply pKi value. Item: COc1ccnc(CNC(=O)c2ccc(OC)c(CNC3=NCCN3)c2)c1
result: 8.14

query: Supply pKi value. Item: CCOc1ccc(C(=O)NC(C)c2cc(OC)cc(OC)c2)cc1CNC1=NCCN1 (centres unmarked)
result: 8.01

query: Supply pKi value. Item: O=C(NCc1cc(Cl)cc(Cl)c1)c1cc(Cl)cc(CNC2=NCCN2)c1
result: 7.76

query: Supply pKi value. Item: O=C(NCc1ccc(Cl)c(Cl)c1)c1cc(Cl)cc(CNC2=NCCN2)c1
result: 7.97

query: Supply pKi value. Item: Cc1ccnc(C(NC(=O)c2cc(CNC3=NCCN3)c(F)cc2F)C2CC2)c1 (centres unmarked)
result: 8.66

query: Supply pKi value. Item: CC(C)N(Cc1cccc(Cl)c1)C(=O)c1cccc(CNC2=NCCN2)c1
result: 6.40

query: Supply pKi value. Item: COc1ccnc(CNC(=O)c2ccc(F)c(CNC3=NCCN3)c2)c1
result: 8.82

query: Supply pKi value. Item: COc1ccc(C(=O)NCc2ccc(Cl)c(F)c2)cc1CNC1=NCCN1
result: 8.75

====

Experimental target: WDR5 (Homo sapiens (Human), UniProt P61964)
Assay details: Fluorescence polarization anisotropy (FPA) competition assay, displacement of FITC-MLL or 10mer-Thr-FAM peptide
Format: binding
Assay conditions: Table B2, WDR5 WIN-site binding affinity; values not less than 1 nM (FPA)
pKi: −log10 of the molar value.
# binarize pKi: threshold 8 inclusive, high side TRUE, low side FALSE

>>> print(df.to_string())
                                   molecule                       experimental_target  group_label
0  COc1cc(OC)cc(C(C)NC(=O)c2ccc(OC(C)C)c(CNC3=NCCC3)c2)c1 (stereo not drawn) [Example B124]  WDR5 (Homo sapiens (Human), UniProt P61964)        FALSE

query: Tell me whether pKi is at least 8 here: Cc1ccc(CNC(=O)c2cc(Cl)cc(CNC3=NCCN3)c2)cc1Cl [Example B10]
result: FALSE

query: Tell me whether pKi is at least 8 here: O=C(NCc1cc(Cl)cc(Cl)c1)c1ccc(F)c(CNC2=NCCN2)c1 [Example B17]
result: TRUE

query: Tell me whether pKi is at least 8 here: Cc1ccncc1-c1cc(CNC2=NCCN2)cc(C(=O)NCc2cccc(F)n2)c1 [Example B89]
result: TRUE

query: Tell me whether pKi is at least 8 here: O=C(NCc1ccc(Cl)c(Cl)c1)c1cccc(CNC2=NCCN2)c1 [Example B3]
result: FALSE

query: Tell me whether pKi is at least 8 here: O=C(NCc1ccc(Cl)c(Cl)c1)c1ccc(F)c(CNC2=NCCN2)c1 [Example B6]
result: TRUE
